measurementDescription: Rat pilot single-dose oral pharmacokinetic study with Compound EG
Type: in vivo
cond: male, Sprague-Dawley, rat, plasma; 100 mg/kg single oral gavage, 6 HR
Protocol: Rat Pilot Single-Dose Oral Pharmacokinetic Study with Compound EG Determination of the Plasma Profile of Compound EG Following Single Oral Gavage Administration to Male Rats. Test compound was suspended in 1% HPMC using a tissue homogenizer to minimize particles and maximize uniformity of the suspension and stored at 4° C. […] Following centrifugation, the plasma were harvested into a single tube for each animal at each time point and immediately frozen at −80° C. until analyzed using LC/MS-MS. […]
outcomeMeasure: concentration at 6 h

Ask | May I ask what concentration at 6 h has been recorded for Cc1ccc(Cc2nnn[nH]2)cc1OCc1c(C)cccc1C [Compound EG] ?
Reply | 4000 ng/mL

Value source: patent US8889724B2
